Data origin, for the record: patent US20240158446A1

biological target: UniProt:P01116; test: Binding to KRAS by surface plasmon resonance (SPR), Single Cycle Kinetics; conditions: SPR, Single Cycle Kinetics, GDP-bound KRAS wild-type protein; read-out: KRAS KD
Sequence (P01116 whole entry): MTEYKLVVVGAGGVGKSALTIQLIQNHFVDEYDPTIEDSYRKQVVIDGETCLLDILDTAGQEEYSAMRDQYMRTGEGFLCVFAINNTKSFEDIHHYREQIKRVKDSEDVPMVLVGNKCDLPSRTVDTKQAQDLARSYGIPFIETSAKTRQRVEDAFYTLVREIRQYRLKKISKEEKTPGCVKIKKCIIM
Measured pKd, listed per entry.
The quantity pKd is defined as the negative base-10 logarithm of the molar concentration.

CCO[C@@H]1C[C@H]2C(=O)NC3(CC(F)(F)C3)C(=O)N(C)[C@@H](C3CCCC3)C(=O)N(C)[C@H](C(=O)N3CCOCC3)CC(=O)N(C)[C@@H](CC(C)C)C(=O)N[C@@H]([C@@H](C)CC)C(=O)N(C)CC(=O)N(C)[C@H]3CC=C(C)CN(C3=O)[C@@H](Cc3ccc(C(F)(F)F)cc3)C(=O)N(C)CC(=O)N[C@@H](CCc3cc(F)c(C(F)(F)F)c(F)c3)C(=O)N2C1 : 9.77

Now examine the next entry.
response.value for CCC[C@H]1C(=O)N[C@@H]([C@@H](C)CC)C(=O)N(C)CC(=O)N(C)[C@H]2C/C=C\CCN(C2=O)[C@@H](Cc2ccc(C)cc2)C(=O)N(C)CC(=O)N[C@@H](CCc2cc(F)c(C(F)(F)F)c(F)c2)C(=O)N2C[C@H](OCC)C[C@H]2C(=O)NC2(CC(C)(C)C2)C(=O)N(C)[C@@H](CC(F)(F)F)C(=O)N(C)[C@H](C(=O)N(C)C)CC(=O)N1C (field: pKd) = 9.37
